Hello, the source for this data is paper PMC2929599, in case you need it.

- test system: hTHEM2 (human hotdog-fold thioesterase THEM2, thioesterase superfamily member 2) (Homo sapiens)
- Sequence (Q9NPJ3 whole entry): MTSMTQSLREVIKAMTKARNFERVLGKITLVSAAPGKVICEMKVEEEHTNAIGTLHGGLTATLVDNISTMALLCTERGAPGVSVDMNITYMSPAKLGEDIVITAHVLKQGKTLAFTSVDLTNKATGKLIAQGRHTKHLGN
pKi: −log10 of the molar value.
property measured: pKi

- structure smiles string: "CCNC(=O)CCNC(=O)[C@H](O)C(C)(C)COP(=O)(O)OP(=O)(O)OC[C@H]1O[C@@H](n2cnc3c(N)ncnc32)[C@H](O)[C@@H]1OP(=O)(O)O"
  data value: 5.05
